Target: S1P3 (Homo sapiens, UniProt Q99500)
Sequence (Q99500 whole entry): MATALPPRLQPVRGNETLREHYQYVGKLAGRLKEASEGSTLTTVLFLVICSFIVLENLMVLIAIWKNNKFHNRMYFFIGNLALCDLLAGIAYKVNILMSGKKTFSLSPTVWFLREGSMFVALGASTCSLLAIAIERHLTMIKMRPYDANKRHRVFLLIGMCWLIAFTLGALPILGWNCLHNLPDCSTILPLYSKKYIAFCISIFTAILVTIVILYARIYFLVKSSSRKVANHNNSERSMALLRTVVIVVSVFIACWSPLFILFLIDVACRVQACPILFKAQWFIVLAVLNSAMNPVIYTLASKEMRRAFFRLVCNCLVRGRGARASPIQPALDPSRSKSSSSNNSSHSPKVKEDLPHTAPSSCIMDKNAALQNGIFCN
Assay: Method A: Receptor [35S] GTPγS Binding Assay, membranes from EDG3-Ga15-bla HEK293T cells
Format: biochemical
Design: expressed in transfected cells; host or cells: EDG3-Ga15-bla HEK293T cells
Details: EDG3-Ga15-bla HEK293T cell membranes
pEC50: −log10 of the molar value.
Rule: pEC50 of 6 or more gives label 1; anything lower gives label 0.

Cc1cc(-c2noc(-c3onc(-c4ccccc4)c3C(F)(F)F)n2)ccc1CN1CC(C(=O)O)C1: label 0
CNC(=O)c1c(-c2ccccc2)noc1-c1nc(-c2ccc(CN3CC(C(=O)O)C3)cc2)no1: label 0
O=C(O)c1c(-c2ccccc2)noc1-c1nc(-c2ccc(CN3CC(C(=O)O)C3)cc2)no1: label 0
O=C(O)C1CN(Cc2ccc(-c3noc(-c4noc(-c5ccccc5)c4C(F)(F)F)n3)cc2)C1: label 0

Alright, here's another compound for you.
Form field: pEC50 at least 6? Entry: CC(C)Cc1c(-c2nc(-c3ccc(CN4CC(C(=O)O)C4)cc3)no2)noc1-c1ccccc1
label 1

* * *

Target: S1P1 (Homo sapiens, UniProt P21453)
Sequence (P21453 whole entry): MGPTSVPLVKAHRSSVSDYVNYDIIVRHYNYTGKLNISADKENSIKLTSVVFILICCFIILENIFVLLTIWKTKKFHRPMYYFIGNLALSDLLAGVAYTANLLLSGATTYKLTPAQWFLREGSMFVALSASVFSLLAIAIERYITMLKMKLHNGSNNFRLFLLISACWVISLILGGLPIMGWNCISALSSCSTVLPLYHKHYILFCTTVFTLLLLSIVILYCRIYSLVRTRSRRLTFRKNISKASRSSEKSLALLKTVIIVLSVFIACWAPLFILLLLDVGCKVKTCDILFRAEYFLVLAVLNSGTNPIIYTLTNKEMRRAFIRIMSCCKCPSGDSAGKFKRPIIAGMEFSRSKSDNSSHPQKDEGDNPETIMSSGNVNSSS
Experiment: Method A: Receptor [35S] GTPγS Binding Assay, membranes from S1P1/CHO cells
Assay type: biochemical
Design: expressed in transfected cells; host or cells: S1P1/CHO cells
Details: ratio of GTPγS S1P3 EC50 to GTPγS S1P1 EC50, Method A
quantity.name: GTPγS S1P3/S1P1 (Method A)
Answers are plain numbers.

Consider the worked cases shown below.
O=C(O)C1CN(Cc2ccc(-c3noc(-c4cc(-c5ccccc5)c(C(F)(F)F)s4)n3)cc2)C1 [Comp. A, reference compound]: 1.2
COC(=O)c1c(-c2ccccc2)noc1-c1nc(-c2ccc(CN3CC(C(=O)O)C3)cc2)no1: 578
CCc1c(-c2nc(-c3ccc(CN4CC(C(=O)O)C4)c(Br)c3)no2)noc1-c1ccccc1: 320
CC(C)Cc1c(-c2nc(-c3ccc(CN4CC(C(=O)O)C4)cc3)no2)noc1-c1ccccc1: 670
O=C(O)C1CN(Cc2ccc(-c3noc(-c4noc(-c5ccccc5)c4CCC(F)(F)F)n3)cc2)C1: 140

Below are some molecules; for each one, tell me its GTPγS S1P3/S1P1 (Method A).
1. O=C(O)c1c(-c2ccccc2)noc1-c1nc(-c2ccc(CN3CC(C(=O)O)C3)cc2)no1
2. CC(C)(C)c1c(-c2nc(-c3ccc(CN4CC(C(=O)O)C4)cc3)no2)noc1-c1ccccc1

18
560

* * *

Biological target: S1P1 (Homo sapiens, UniProt P21453)
Test: Method A: Receptor [35S] GTPγS Binding Assay, membranes from S1P1/CHO cells
Assay type: biochemical
Parameters: expressed in transfected cells; host or cells: S1P1/CHO cells
Conditions: ratio of GTPγS S1P3 EC50 to GTPγS S1P1 EC50, Method A
Please respond with reported GTPγS S1P3/S1P1 (Method A) for every item in the list.

CC(C)Cc1onc(-c2nc(-c3ccc(CN4CC(C(=O)O)C4)cc3)no2)c1C(F)(F)F [Example 20]: 3,900
CCCCc1c(-c2nc(-c3ccc(CN4CC(C(=O)O)C4)cc3)no2)noc1-c1ccccc1 [Example 3]: 1,300

Fill in: GTPγS S1P3/S1P1 (Method A) of Cc1cc(-c2noc(-c3onc(-c4ccccc4)c3C(F)(F)F)n2)ccc1CN1CC(C(=O)O)C1 [Example 22] is ___
3,000

* * *

Target: S1P3 (Homo sapiens)
Experiment: Method A: Receptor [35S] GTPγS Binding Assay, membranes from EDG3-Ga15-bla HEK293T cells
Format: biochemical
Design: expressed in transfected cells; host or cells: EDG3-Ga15-bla HEK293T cells
Conditions: EDG3-Ga15-bla HEK293T cell membranes
quantity.name: EC50 (nM)
Numbers only, in nM.

Example results:
O=C(O)C1CN(Cc2ccc(-c3noc(-c4onc(-c5ccccc5)c4C(F)(F)F)n3)cc2F)C1 [Example 21]: 1100
O=C(O)C1CN(Cc2ccc(-c3noc(-c4onc(-c5ccccc5)c4C(F)(F)F)n3)cc2)C1 [Example 1]: 940

Let's switch to this compound now.
Which EC50 is listed for COC(=O)c1c(-c2ccccc2)noc1-c1nc(-c2ccc(CN3CC(C(=O)O)C3)cc2)no1 [Example 13] ?
1100

* * *

Biological target: S1P1 (Homo sapiens, UniProt P21453)
Experiment: Method A: Receptor [35S] GTPγS Binding Assay, membranes from S1P1/CHO cells
Type: biochemical
Set-up: expressed in transfected cells; host or cells: S1P1/CHO cells
Details: ratio of GTPγS S1P3 EC50 to GTPγS S1P1 EC50, Method A
Where a name gives a salt, the structure may show the parent alone.
Please go through the items and note down their GTPγS S1P3/S1P1 (Method A).
Numbers only.

O=C(O)C1CN(Cc2ccc(-c3noc(-c4noc(-c5ccccc5)c4C4CC4)n3)cc2)C1 [Example 6]: 75

Hi there! I need GTPγS S1P3/S1P1 (Method A) for each item below, if you can.
1. CCCc1onc(-c2nc(-c3ccc(CN4CC(C(=O)O)C4)cc3)no2)c1CC(C)C [Example 19, TFA]
2. O=C(O)C1CN(Cc2ccc(-c3noc(-c4noc(-c5ccccc5)c4-c4ccccc4)n3)cc2)C1 [Example 17]

270
27

Entry O=C(NCC(F)(F)F)c1c(-c2ccccc2)noc1-c1nc(-c2ccc(CN3CC(C(=O)O)C3)cc2)no1 [Example 15] has what GTPγS S1P3/S1P1 (Method A)?
175

* * *

Give GTPγS S1P3/S1P1 (Method A) for every item shown.
Target: S1P1 (Homo sapiens)
Test: Method A: Receptor [35S] GTPγS Binding Assay, membranes from S1P1/CHO cells
Assay type: biochemical
Set-up: expressed in transfected cells; host or cells: S1P1/CHO cells
Details: ratio of GTPγS S1P3 EC50 to GTPγS S1P1 EC50, Method A

O=C(O)C1CN(Cc2ccc(-c3noc(-c4onc(-c5ccccc5)c4C(F)(F)F)n3)c(C(F)(F)F)c2)C1: 4,900
O=C(O)C1CN(Cc2ccc(-c3noc(-c4onc(-c5ccccc5)c4C(F)(F)F)n3)cc2)C1: 1,400
O=C(O)C1CN(Cc2ccc(-c3noc(-c4onc(-c5ccccc5)c4C(F)(F)F)n3)c(Cl)c2)C1: 4,400
O=C(O)C1CN(Cc2ccc(-c3noc(-c4onc(-c5ccccc5)c4C(F)(F)F)n3)cc2F)C1: 3,500

The record that follows has no GTPγS S1P3/S1P1 (Method A) shown yet.
Which GTPγS S1P3/S1P1 (Method A) is reported for this compound? O=C(O)C1CN(Cc2ccc(-c3noc(-c4noc(-c5ccccc5)c4C(F)(F)F)n3)cc2)C1
2,100
